# test: Kinetic aqueous solubility of the compound in 2% DMSO/phosphate buffered saline at 200 uM incubated for 90 mins by UV absorbance based analysis
# Assay type: physicochemical
# run-conditions: read-out: Kinetic_solubility
quantity-measured: solubility kinetic at 1.5 h, 200 µM (µM)
Quick reminder: number only, in µM, skip the unit.

// sample `N=C(NO)c1ccc2nc(-c3cccc(-c4cn5ccccc5n4)c3)[nH]c2c1` , its solubility kinetic at 1.5 h, 200 µM was 36.1

----------
As shown below, each of these compounds has a reported pIC50 value.
# Tested on: A549
# test: Antiproliferative activity against human A549 cells assessed as reduction in cell viability incubated for 48 hrs by SRB assay
# Type: functional, cell-based
# run-conditions: A549, 48 h
Scale explanation: pIC50 corresponds to minus log10 of a concentration expressed in moles per litre.

N=C(NO)c1ccc2nc(-c3cccc(-c4cn5ccccc5n4)c3)[nH]c2c1    6.70

Measured pIC50 of COc1cccc2c1C(=O)c1c(O)c3c(c(O)c1C2=O)C[C@@](O)(C(=O)CO)C[C@@H]3O[C@H]1C[C@H](N)[C@H](O)[C@H](C)O1 [DOXORUBICIN] : 7.05
